Target: P. falciparum apicoplast DNA polymerase (Pf-apPOL) (Plasmodium falciparum, UniProt Q8ILY1)
Sequence (Q8ILY1 entry or part of it): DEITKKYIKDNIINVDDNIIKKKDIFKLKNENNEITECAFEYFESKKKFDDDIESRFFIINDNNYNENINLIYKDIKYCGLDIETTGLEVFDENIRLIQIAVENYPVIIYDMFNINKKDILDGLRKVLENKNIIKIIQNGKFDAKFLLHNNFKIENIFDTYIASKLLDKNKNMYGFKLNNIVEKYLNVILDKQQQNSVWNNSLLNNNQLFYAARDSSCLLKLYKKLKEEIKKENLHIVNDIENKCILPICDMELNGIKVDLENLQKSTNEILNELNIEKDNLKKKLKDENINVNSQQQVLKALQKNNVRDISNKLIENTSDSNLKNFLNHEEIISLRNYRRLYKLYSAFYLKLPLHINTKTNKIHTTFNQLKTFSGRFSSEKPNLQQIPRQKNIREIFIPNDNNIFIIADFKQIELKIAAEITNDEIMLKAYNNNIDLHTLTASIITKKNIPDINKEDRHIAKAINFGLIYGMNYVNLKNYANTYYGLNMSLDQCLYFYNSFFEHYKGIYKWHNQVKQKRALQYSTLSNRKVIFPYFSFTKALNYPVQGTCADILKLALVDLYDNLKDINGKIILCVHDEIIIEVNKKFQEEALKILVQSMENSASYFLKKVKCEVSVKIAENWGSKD
Experiment: Fluorescence-based high-throughput DNA polymerase assay (molecular beacon), primary screen and dose-response;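 further: test concentration in µM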
Assay type: biochemical
Conditions: DRC-2, 90', concentration 5 (unit not given)
result_type: % inhibition ApPOL 90' (%)
Report the value in % with no unit label.

Answered examples (5):
[[record]]
molecule = "COc1ccc2c(c1)C(c1ccccc1OC)CC(=O)O2 (stereo not drawn)"
target_entity = "P. falciparum apicoplast DNA polymerase (Pf-apPOL) (Plasmodium falciparum, UniProt Q8ILY1)"
units_text = "%"
endpoint_result = 7

[[record]]
molecule = "Cc1ccc(CCNC(=O)c2cnn3c(O)c(Cc4ccccc4F)c(C)nc23)cc1"
target_entity = "P. falciparum apicoplast DNA polymerase (Pf-apPOL) (Plasmodium falciparum, UniProt Q8ILY1)"
units_text = "%"
endpoint_result = 17

[[record]]
molecule = "COc1cc(NC(=O)c2ccccc2)c(OC)cc1NC(=O)Cc1cccs1"
target_entity = "P. falciparum apicoplast DNA polymerase (Pf-apPOL) (Plasmodium falciparum, UniProt Q8ILY1)"
units_text = "%"
endpoint_result = 25

[[record]]
molecule = "O=C(Cn1ccc2c(=O)[nH]ccc21)Nc1ccc(Cl)cc1 [Molecule 36, O=C(Cn1ccc2c1cc[nH]c2=O)Nc1ccc(cc1)Cl]"
target_entity = "P. falciparum apicoplast DNA polymerase (Pf-apPOL) (Plasmodium falciparum, UniProt Q8ILY1)"
units_text = "%"
endpoint_result = 20

[[record]]
molecule = "O=[N+]([O-])/C=C/c1ccc(-c2ccc(Br)cc2)o1"
target_entity = "P. falciparum apicoplast DNA polymerase (Pf-apPOL) (Plasmodium falciparum, UniProt Q8ILY1)"
units_text = "%"
endpoint_result = 31


Tell me the measured % inhibition ApPOL 90' of COc1ccc(-c2c(C(F)(F)F)nn3c(=O)cc(-c4cccc([N+](=O)[O-])c4)[nH]c23)cc1 , please. 14

###

Target: P. falciparum apicoplast DNA polymerase (Pf-apPOL) (Plasmodium falciparum)
Experiment: Fluorescence-based high-throughput DNA polymerase assay (molecular beacon), primary screen and dose-response
Format: biochemical
Details: DRC-2, 180', concentration 20 (unit not given)
Reported % inhibition apPOL 180' values are given for each entry in this list.

Answered examples (9):
[[record]]
compound = "OC(C#Cc1ccccc1)c1ccco1 (stereo not shown)"
target_entity = "P. falciparum apicoplast DNA polymerase (Pf-apPOL) (Plasmodium falciparum)"
endpoint_result = "66%"

[[record]]
compound = "O=C1N/C(=N/c2ccccc2Cl)S/C1=C/c1ccc([N+](=O)[O-])o1"
target_entity = "P. falciparum apicoplast DNA polymerase (Pf-apPOL) (Plasmodium falciparum)"
endpoint_result = "58%"

[[record]]
compound = "O=c1[nH]c2ccc(Br)cc2c(-c2ccccc2)c1C1=NNC(c2ccco2)C1 (stereo not shown)"
target_entity = "P. falciparum apicoplast DNA polymerase (Pf-apPOL) (Plasmodium falciparum)"
endpoint_result = "72%"

[[record]]
compound = "Nc1c(S(=O)(=O)O)cc(Nc2ccccc2)c2c1C(=O)c1ccccc1C2=O"
target_entity = "P. falciparum apicoplast DNA polymerase (Pf-apPOL) (Plasmodium falciparum)"
endpoint_result = "75%"

[[record]]
compound = "O=C(Cn1ccc2c(=O)[nH]ccc21)Nc1ccc(Cl)cc1 [Molecule 36, O=C(Cn1ccc2c1cc[nH]c2=O)Nc1ccc(cc1)Cl]"
target_entity = "P. falciparum apicoplast DNA polymerase (Pf-apPOL) (Plasmodium falciparum)"
endpoint_result = "63%"

[[record]]
compound = "CN(C)C1C(c2ccccc2)=C(c2ccccc2)SC(c2ccccc2)C1[N+](=O)[O-] (stereo not shown)"
target_entity = "P. falciparum apicoplast DNA polymerase (Pf-apPOL) (Plasmodium falciparum)"
endpoint_result = "47%"

[[record]]
compound = "CCCCc1ccc(NC(=O)CSc2nc(O)c(C#N)c(C3CCCCC3)n2)c(C)c1"
target_entity = "P. falciparum apicoplast DNA polymerase (Pf-apPOL) (Plasmodium falciparum)"
endpoint_result = "40%"

[[record]]
compound = "COc1cc(NC(=O)c2ccccc2)c(OC)cc1NC(=O)Cc1cccs1"
target_entity = "P. falciparum apicoplast DNA polymerase (Pf-apPOL) (Plasmodium falciparum)"
endpoint_result = "61%"

[[record]]
compound = "Cc1cc(C)c2c(O)nc(SCC(=O)c3ccc(O)c(O)c3)nc2n1"
target_entity = "P. falciparum apicoplast DNA polymerase (Pf-apPOL) (Plasmodium falciparum)"
endpoint_result = "63%"


Now turn to the next compound.
Please state recorded % inhibition apPOL 180' (tested on P. falciparum apicoplast DNA polymerase (Pf-apPOL) (Plasmodium falciparum)) of O=C(O)c1ccc(-c2nc3cc(-c4ccc5nc(-c6ccc(C(=O)O)cc6)[nH]c5c4)ccc3[nH]2)cc1 37%

Data credit: paper PMC9090415
